- Test method notes: NOVARTIS: Cytotoxicity against human hepatocellular carcinoma cell line (Huh7)
- Assay type: toxicity, cell-based, Huh-7
- Setup conditions: Huh7 cells (hepatocellular carcinoma cell line)
Property name: CC50

Find the recorded CC50 belonging to CCN(CC)CCNc1nc(C=Cc2ccc(Cl)cc2)nc2cc3ccccc3cc12 and report it.
22.5 µM

Find the recorded CC50 belonging to C=CCNc1cc(-c2ccccn2)nc(-c2ccccn2)n1 and report it.
> 10 µM

Find the recorded CC50 belonging to CCc1c(C)c(C#N)c2nc3ccccc3n2c1NCc1ccco1 and report it.
> 100 µM

Find the recorded CC50 belonging to Cc1ccc(Sc2c(C)nn(C(=O)c3cccnc3)c2C)cc1 and report it.
> 10 µM

Find the recorded CC50 belonging to COc1ccc(C(=O)C[n+]2ccc(N)c(C)c2C)cc1 and report it.
> 10 µM

Find the recorded CC50 belonging to COc1cc(OC)cc(C(=O)Oc2ccccc2-c2nc3cc(C)ccn3c2NC(C)(C)CC(C)(C)C)c1 and report it.
> 10 µM

Find the recorded CC50 belonging to O=C(c1ccc2c(c1)OCO2)N1CCOC(c2ccc(Cl)cc2)C1 (configuration not stated) and report it.
> 100 µM

Find the recorded CC50 belonging to COc1ccc(CCN(C(=S)Nc2ccccc2)C2CC(=O)N(c3ccc(F)cc3)C2=O)cc1OC (configuration not stated) and report it.
> 1.91 µM

Find the recorded CC50 belonging to O[C@@H](c1cc(C(F)(F)F)nc2c(C(F)(F)F)cccc12)[C@H]1CCCCN1 and report it.
> 6.25 µM

Find the recorded CC50 belonging to COc1cc(OC)cc(C(=O)N2CCN(c3ccccn3)CC2)c1 and report it.
> 10 µM

Find the recorded CC50 belonging to Oc1cccc(-c2nc(-c3ccccc3)c(-c3ccc4oc5ccc(-c6[nH]c(-c7cccc(O)c7)nc6-c6ccccc6)cc5c4c3)[nH]2)c1 and report it.
20.4 µM

Find the recorded CC50 belonging to c1ccc(-c2ccc(CNc3ccc4cn[nH]c4c3)cc2)cc1 and report it.
> 10 µM

Reference source for all entries: ChEMBL document CHEMBL1156829
